The reported numbers originate from patent US20240000957A1.

# tested_on: T1, Mouse EphA2 (Ecto) (Mouse, UniProt Q03145 26-538)
# T1 construct: extracellular domain; Fluorescence polarisation assays; not shown: Fc fusion (R&D Systems 639-A2) or C-terminal polyHis (Sino Biological 50586-M08H)
# run_description: FP competition vs Reference Compound C (Study 2)
# Ki per record follows
All answers are understood in nM, so give the number only.

A selection of reference data follows.
Request: Find the recorded Ki belonging to AXDCPLVNPLCLHPGWTC (not fully specified; as BCY6014 (N-terminal (β-Ala)-Sar10; HArg; TATA scaffold on the 3 Cys) + D-TrpCit-MMAE, Bicycle drug conjugate (BDC)) [BCY6062] and report it.
Response: 20.3

Request: For the binder shown here, AXDCPLVNPLCLHPGWTC (not fully specified; as BCY6014 (N-terminal (β-Ala)-Sar10; HArg; TATA scaffold on the 3 Cys) + Non-cleavable (MMAE), Bicycle drug conjugate (BDC)) [BCY6063] , give the reported Ki.
Response: 66.8

Please look at the following binder next.
Request: Fill blank: measured Ki of the binder AXDCPLVNPLCLHPGWTC (not fully specified; as BCY6014 (N-terminal (β-Ala)-Sar10; HArg; TATA scaffold on the 3 Cys) + ValLys-MMAE, Bicycle drug conjugate (BDC)) [BCY6061] is ____.
Response: 32.3
